src = ChEMBL document CHEMBL1126682

Quick reference for Currents among some compounds
# tested_target: GABA-A receptor; anion channel (Homo sapiens) (UniProt P14867+P47870+P18507+P28472+P48169+Q99928+Q9UN88+P34903+O00591+O14764+Q8N1C3+P18505+P78334+P47869+P31644+Q16445)
# test_protocol: Percentage of GABA-induced chloride currents with 10 e-5 M 4-biphenylacetic acid
# Format: functional
# experimental_context: Bull Frog

- compound: "NCC1CN(c2c(F)cc3c(=O)c(C(=O)O)cn(C4CC4)c3c2F)CCO1 (stereo not given)"
  Currents: "90%"
- compound: "CN(C)CC1CN(c2c(F)cc3c(=O)c(C(=O)O)cn(C4CC4)c3c2F)CCO1 (stereo not given)"
  Currents: "89%"
- compound: "O=C(O)c1cn(C2CC2)c2c(F)c(N3CCOCC3)c(F)cc2c1=O"
  Currents: "91%"
- compound: "NCC1CN(c2cc3c(cc2F)c(=O)c(C(=O)O)cn3C2CC2)CCO1 (stereo not given)"
  Currents: "90%"
- compound: "CNCC1CN(c2c(F)cc3c(=O)c(C(=O)O)cn(C4CC4)c3c2F)CCO1 (stereo not given)"
  Currents: "90%"
